Header: Ki / Prothrombin (Homo sapiens, UniProt P00734) / multiple publications
# unit: nM | format: bare number

Consider the following illustrative entries.
>  <Compound>
CN(C(=O)[C@H](CC#Cc1ccc(N)nc1)NS(=O)(=O)c1ccc2ccccc2c1)C1CCCC1

>  <Readout label>
Ki

>  <Unit info>
nM

>  <Data value>
1500

$$$$
>  <Compound>
C[C@H](NC(=O)[C@@H](CCc1cccc[n+]1[O-])NS(=O)(=O)Cc1ccccc1)C(=O)NCc1cc(Cl)ccc1CN

>  <Readout label>
Ki

>  <Unit info>
nM

>  <Data value>
170

$$$$
>  <Compound>
N=C(N)c1ccc(CNC(=O)C(CCC2CCNCC2)NC(=O)[C@H](N)CC2CCCCC2)cc1 (mixture of isomers)

>  <Readout label>
Ki

>  <Unit info>
nM

>  <Data value>
15000

$$$$

Next item in the queue.
Give the reported Ki for N=C(N)c1cccc(CN2CC[C@H](NS(=O)(=O)c3cc4nc(Cl)ccc4s3)C2=O)c1 (system: Prothrombin (Homo sapiens, UniProt P00734)).
3100
